The values you see were collected from paper PMC12040169.

# Method description: in vitro
# Run conditions: human, hela cells, % viability
Rule for this label: condition met means viability at 28.5 h, 10 µM is less than 90%; condition not met means viability at 28.5 h, 10 µM is at least 90%.

INSERT INTO measurements (molecule, assigned_category) VALUES
  ('Cc1cc(O)nc(C(C)N2CCOC(C(C)(C)C)C2)n1 (stereo not drawn)', 'condition not met'),
  ('CC(=O)N1CCC2(CCCC[C@H]3CN(C(=O)CCC(C)C)CC[C@@H]3NC(=O)CNC2=O)CC1', 'condition not met'),
  ('COc1ccc(/C=N\N(C)c2nc(-c3ccccc3)cc(-c3ccc(Br)cc3)n2)cc1OC', 'condition not met'),
  ('C[C@@H](Cn1nc(-c2cccs2)oc1=O)NC(=O)C1CCCC1', 'condition met'),
  ('O=C(c1ccco1)N1CCN(c2cc(-c3cccc4cccnc34)ncn2)CC1', 'condition not met'),
  ('CC(C)OCc1ccc(C(=O)N2CCC(C(=O)O)CC2)cc1', 'condition met'),
  ('CC(C)NC(=O)N[C@H]1CCN2C(=O)c3cc(-c4ccccc4F)ccc3NC(=O)[C@H]12', 'condition met'),
  ('CCc1nn(CC(=O)N2CCCCCC2)c(=O)c2cc3occc3n12', 'condition met');
